Values compiled from the supplement of paper PMC11246515.

experiment: total protein half-life in vivo (active degradation + dilution); higher = more stable protein; conditions: E. coli NCM3722 delta-clpP delta-lon delta-hslV; growth: N-lim chemostat; doubling time 6 h
reported_property: total protein half-life in vivo (h)
The figure you give is taken to be in h; do not add the unit.

Recorded results for 2 sequences are shown here.
# seq, units_label, total protein half-life in vivo
measured = [
    ("MVSRRVQALLDQLRAQGIQDEQVLNALAAVPREKFVDEAFEQKAWDNIALPIGQGQTISQPYMVARMTELLELTPQSRVLEIGTGSGYQTAILAHLVQHVCSVERIKGLQWQARRRLKNLDLHNVSTRHGDGWQGWQARAPFDAIIVTAAPPEIPTALMTQLDEGGILVLPVGEEHQYLKRVRRRGGEFIIDTVEAVRFVPLVKGELA [P0A7A5]", "h", 5.04),
    ("MDHSLNSLNNFDFLARSFARMHAEGRPVDILAVTGNMDEEHRTWFCARYAWYCQQMMQARELELEH", "h", 2.86),
]

MRNLVKYVGIGLLVMGLAACDDKDTNATAQGSVAESNATGNPVNLLDGKLSFSLPADMTDQSGKLGTQANNMHVWSDATGQKAVIVIMGDDPKEDLAVLAKRLEDQQRSRDPQLQVVTNKAIELKGHKMQQLDSIISAKGQTAYSSVILGNVGNQLLTMQITLPADDQQKAQTTAENIINTLVIQ [P0AEE1] yielded total protein half-life in vivo of 6.11

* * *

Listing of recorded total protein half-life in vivo by entry.
experiment: total protein half-life in vivo (active degradation + dilution); higher = more stable protein; details: E. coli NCM3722 delta-clpP delta-lon delta-hslV; growth: N-lim chemostat; doubling time 6 h
The figure you give is taken to be in h; do not add the unit.

# seq, reported_property, meas_value
rows = [
    ("MSTTNHDHHIYVLMGVSGSGKSAVASEVAHQLHAAFLDGDFLHPRRNIEKMASGEPLNDDDRKPWLQALNDAAFAMQRTNKVSLIVCSALKKHYRDLLREGNPNLSFIYLKGDFDVIESRLKARKGHFFKTQMLVTQFETLQEPGADETDVLVVDIDQPLEGVVASTIEVIKKGK", "total protein half-life in vivo", 5.07),
    ("MAFKIWQIGLHLQQQEAVAVAIVRGAKECFLQRWWRLPLENDIIKDGRIVDAQQLAKTLLPWSRELPQRHHIMLAFPASRTLQRSFPRPSMSLGEREQTAWLSGTMARELDMDPDSLRFDYSEDSLSPAYNVTAAQSKELATLLTLAERLRVHVSAITPDASALQRFLPFLPSHQQCLAWRDNEQWLWATRYSWGRKLAVGMTSAKELAAALSVDPESVAICGEGGFDPWEAVSVRQPPLPPPGGDFAIALGLALGKAY", "total protein half-life in vivo", 4.83),
]

MPLSAQQLAAQKNLSYVLAEKLAQRILKGEYEPGTILPGEIELGEQFGVSRTAVREAVKTLTAKGMVLPRPRIGTRVMPQSNWNFLDQELLTWWMTEENFHQVIDHFLVMRICLEPQACLLAATVGTAEQKAHLNTLMAEMAALKENFRRERWIEVDMAWHEHIYEMSANPFLTSFASLFHSVYHTYFTSITSDTVIKLDLHQAIVDAIIQSDGDAAFKACQALLRSPDK yielded total protein half-life in vivo of 4.46
